Test system: Rattus norvegicus
Assay: Compound is evaluated for effect on serum estradiol, 14 days subsequent to a single intravenous dose determined by means of a radioimmunoassay
Type: functional, organism-based
Note to self: values exactly at 40 pg/mL are Y. So Concentration at or above 40 pg/mL is Y, below is N.

# structure_notation, target_or_test_system, discrete_label
measured = [
    ("C[C@]12CC[C@@H]3c4ccc(O)cc4CC[C@H]3[C@@H]1CC[C@@H]2OC(=O)C1=CN(Cc2ccccc2)C=CC1", "Rattus norvegicus", "Y"),
    ("CCN1C=CCC(C(=O)O[C@H]2CC[C@H]3[C@@H]4CCc5cc(O)ccc5[C@H]4CC[C@]23C)=C1", "Rattus norvegicus", "N"),
    ("CC(C)N1C=CCC(C(=O)O[C@H]2CC[C@H]3[C@@H]4CCc5cc(O)ccc5[C@H]4CC[C@]23C)=C1", "Rattus norvegicus", "Y"),
    ("C[C@]12CC[C@@H]3c4ccc(O)cc4CC[C@H]3[C@@H]1CC[C@@H]2O", "Rattus norvegicus", "N"),
    ("CCCN1C=CCC(C(=O)O[C@H]2CC[C@H]3[C@@H]4CCc5cc(O)ccc5[C@H]4CC[C@]23C)=C1", "Rattus norvegicus", "Y"),
    ("CN1C=CCC(C(=O)O[C@H]2CC[C@H]3[C@@H]4CCc5cc(O)ccc5[C@H]4CC[C@]23C)=C1", "Rattus norvegicus", "Y"),
    ("CCCCCCN1C=CCC(C(=O)O[C@H]2CC[C@H]3[C@@H]4CCc5cc(O)ccc5[C@H]4CC[C@]23C)=C1", "Rattus norvegicus", "N"),
    ("C[C@]12CC[C@@H]3c4ccc(O)cc4CC[C@H]3[C@@H]1CC[C@@H]2OC(=O)C1=CN(CCCO)C=CC1", "Rattus norvegicus", "Y"),
]

Data credit: ChEMBL document CHEMBL1127427
